# key: entry, value: RP-LC retention time
TEST NAME: gradient 5% acetonitrile 3 min, to 50% in 2 min, to 85% in 15 min, held 3 min, 100 µL/min
STATED CONDITIONS: column: Zorbax Extend-C18 2.1 x 50 mm; eluents: water / acetonitrile, 0.1% formic acid

| MOLECULE | READOUT UNIT | RP-LC retention time |
| --- | --- | --- |
| CC(C)NC(=O)N1CCC(CCOc2ccccc2F)C1 (stereo not given) | s | 853 |
| CNC(=O)c1c(NC(=O)c2ccc(N(C)C)cc2)sc2c1CCC2 | s | 1030 |
| Cc1ccc(NC(=O)N2CC(c3nc(C)no3)C3(CCOCC3)C2)c(Cl)c1 (stereo not given) | s | 796 |
| CC(C)c1nncn1C1CCN(C(=O)c2ccc3c(c2)OCO3)C1 (stereo not given) | s | 612 |
| O=C(C1CCC1)N1CCc2sc(S(=O)(=O)Nc3ccc(Cl)cc3)cc2C1 | s | 929 |
| CC(Oc1ccc(-c2cnc3ccccc3n2)cc1)C(=O)N1CCN(c2ncccn2)CC1 (stereo not given) | s | 872 |
| O=C(CN1CCN(Cc2ccc(F)cc2Cl)C1=O)N1CCN(C2CCCCC2)CC1 | s | 644 |
| CN1CCN(C(c2cccnc2)c2c(NC(=O)c3ccco3)sc3c2CCCC3)CC1 (stereo not given) | s | 611 |
| COCc1ccc(C(=O)Nc2nnc(C)s2)o1 | s | 595 |
| Cc1ccc(NC(=O)NC2CCN(c3ccccc3)C2=O)cc1 (stereo not given) | s | 821 |
| O=C(NC1CC1)c1ccc(OCC2CCCN2C(=O)c2cc(F)ccc2F)cc1 (stereo not given) | s | 785 |
| CC1=C(C(=O)OCCc2ccccc2)C(c2cccs2)NC(=O)N1 (stereo not given) | s | 821 |
| CC(=O)Nc1nc(-c2ccc(C)cc2C)cs1 | s | 808 |
| Fc1ccc(C(OCCCc2cnc[nH]2)c2ccc(F)cc2)cc1 | s | 833 |
| O=C(COc1ccc(F)cc1)N1CCCCC1CCN1CCCCC1 (stereo not given) | s | 648 |
| CCOC(=O)c1cnn2c(C(F)(F)F)cc(-c3ccc(F)cc3)nc12 | s | 1110 |
| CC(Cc1ccco1)NC(=O)C1CCN(S(=O)(=O)c2ccc3c(c2)sc(=O)n3C(C)C)CC1 (stereo not given) | s | 920 |
| COc1ccc(S(=O)(=O)N2CCN(CCc3cn(C)c4ncccc34)CC2)cc1 | s | 609 |
| Cc1cc2c(cc1S(=O)(=O)N1CCCC1C(=O)Nc1ccc(Cl)cc1F)OCC(=O)N2 (stereo not given) | s | 843 |
| CCCn1cc(C(=O)N2CCc3ccccc32)c2nn(-c3ccccc3)c(=O)c-2c1 | s | 840 |

###

TEST NAME: gradient 5% acetonitrile 3 min, to 50% in 2 min, to 85% in 15 min, held 3 min, 100 µL/min
STATED CONDITIONS: column: Zorbax Extend-C18 2.1 x 50 mm; eluents: water / acetonitrile, 0.1% formic acid
# key: entry, value: RP-LC retention time

| COMPOUND | RP-LC retention time |
| --- | --- |
| O=S(=O)(NC1CCCC1)c1ccc(-c2nnc(C3CCC3)o2)o1 | 900 s |
| O=C(CN1CCN(C(=O)Nc2ccc(Br)cc2)CC1=O)NCCC1=CCCCC1 | 834 s |
| CCOc1ccccc1CN1C[C@@H](CO)[C@H](c2ccncc2)C1 | 620 s |
| O=C(Nc1ccc2c(c1)CN(S(=O)(=O)Cc1ccccc1)CCO2)C1CC1 | 844 s |
| O=C(CN1C(=O)NC(c2ccc(Cl)cc2)C2=C1COC2=O)NCc1ccc(F)cc1 (centres undefined) | 771 s |
| CCc1ccc(NC(=O)N2CCCC(C)(C(=O)NCc3ccc(F)cc3)C2)cc1 (centres undefined) | 972 s |
| Fc1cccc(-c2noc(-c3nnn4c3COC(c3ccc(Cl)cc3)C4)n2)c1 (centres undefined) | 1170 s |
| COc1ccccc1-c1c(C)nn2c(N3CCN(c4ccccn4)CC3)cc(C)nc12 | 604 s |
| CN(CC1CCOCC1)C(=O)Nc1cc(F)c(F)c(F)c1 | 804 s |
